- ASSAY_REMARKS: Solubility measurement in various solvents (HPLC)
- Type: physicochemical
- DETAILS: DMSO, 25 °C, organic solvent or mixture, thermodynamic from solid, 48 h
METRIC_NAME: solubility at 48 h

INPUT: Any idea what solubility at 48 h was measured for CCOc1c(-c2cn[nH]c2)ccn2nc(N[C@H]3CCN(S(C)(=O)=O)C[C@H]3C)nc12 [compound of Formula (I) Form I] ?
OUTPUT: > 50 mg/mL

----------
- ASSAY_REMARKS: Solubility measurement in various solvents (HPLC)
- Format: physicochemical
- DETAILS: toluene, 50 °C, organic solvent or mixture, thermodynamic from solid, 24 h
METRIC_NAME: solubility at 24 h

INPUT: Any idea what solubility at 24 h was measured for CCOc1c(-c2cn[nH]c2)ccn2nc(N[C@H]3CCN(S(C)(=O)=O)C[C@H]3C)nc12 [compound of Formula (I) Form I] ?
OUTPUT: < 1000 µg/mL

The reported numbers originate from patent US20230279004A1.
